Tested on: T47D
protocol.details: Growth inhibition of human T47D cells assessed as cell growth at 0.1 uM incubated for 48 hrs by sulforhodamine B assay relative to control
Type: functional
condition.label: read-out: Activity
value.kind: growth at 0.1 µM

[[record]]
substance_smiles = "Cc1cc(C)c(NC(=O)c2sc3nc4c(cc3c2N)CN(Cc2ccccc2)CC4)c(C)c1"
val = "93%"

[[record]]
substance_smiles = "CCc1cccc(C)c1NC(=O)c1sc2nc3c(cc2c1N)C(=O)CCC3"
val = "91%"

[[record]]
substance_smiles = "Cc1cccc(NC(=O)c2sc3nc4c(cc3c2N)C(=O)CCC4)c1"
val = "78%"

[[record]]
substance_smiles = "COc1cccc(NC(=O)c2sc3nc4c(cc3c2N)CN(Cc2ccccc2)CC4)c1"
val = "94%"


----------
Tested on: NCI-H522
protocol.details: Growth inhibition of human NCI-H522 cells assessed as cell growth at 1 uM incubated for 48 hrs by sulforhodamine B assay relative to control
Format: functional
condition.label: read-out: Activity
Consider the following molecules and their measured growth at 1 µM readings.
value.kind: growth at 1 µM (%)

[[record]]
substance_smiles = "COc1cccc(NC(=O)c2sc3nc4c(cc3c2N)CN(Cc2ccccc2)CC4)c1"
tested_system = "NCI-H522"
val = 74

[[record]]
substance_smiles = "Cc1ccc(NC(=O)c2sc3nc4c(cc3c2N)C(=O)CCC4)cc1C"
tested_system = "NCI-H522"
val = 1

[[record]]
substance_smiles = "CN1CCc2nc3sc(C(N)=O)c(N)c3c(-c3cccs3)c2C1"
tested_system = "NCI-H522"
val = 86

[[record]]
substance_smiles = "Nc1c(C(=O)Nc2ccccc2)sc2nc3c(cc12)CN(Cc1ccccc1)CC3"
tested_system = "NCI-H522"
val = 91


----------
System: OVCAR-4
protocol.details: Growth inhibition of human OVCAR-4 cells assessed as cell growth at 0.1 uM incubated for 48 hrs by sulforhodamine B assay relative to control
Assay type: functional
condition.label: read-out: Activity
value.kind: growth at 0.1 µM (%)

[[record]]
substance_smiles = "Nc1c(C(=O)Nc2ccccc2)sc2nc3c(cc12)CN(Cc1ccccc1)CC3"
val = 91

[[record]]
substance_smiles = "CCc1ccccc1NC(=O)c1sc2nc3c(cc2c1N)C(=O)CCC3"
val = 88

[[record]]
substance_smiles = "CCc1cccc(C)c1NC(=O)c1sc2nc3c(cc2c1N)C(=O)CCC3"
val = 91


----------
System: UO-31
protocol.details: Growth inhibition of human UO-31 cells assessed as cell growth at 0.01 uM incubated for 48 hrs by sulforhodamine B assay relative to control
Type: functional
condition.label: read-out: Activity
value.kind: growth at 0.01 µM (%)

[[record]]
substance_smiles = "Cc1cc(C)c(NC(=O)c2sc3nc4c(cc3c2N)CN(Cc2ccccc2)CC4)c(C)c1"
val = 91

[[record]]
substance_smiles = "Cc1cccc(NC(=O)c2sc3nc4c(cc3c2N)C(=O)CCC4)c1"
val = 88

[[record]]
substance_smiles = "COc1cccc(NC(=O)c2sc3nc4c(cc3c2N)CN(Cc2ccccc2)CC4)c1"
val = 92

[[record]]
substance_smiles = "CCc1ccccc1NC(=O)c1sc2nc3c(cc2c1N)C(=O)CCC3"
val = 90


----------
Consider the following compounds and their measured GI50 readings.
System: UO-31
protocol.details: Growth inhibition of human UO-31 cells incubated for 48 hrs by sulforhodamine B assay
Assay type: functional
value.kind: GI50 (µM)

[[record]]
substance_smiles = "COc1cccc(NC(=O)c2sc3nc4c(cc3c2N)CN(Cc2ccccc2)CC4)c1"
value_kind = "GI50"
val = 3.27

[[record]]
substance_smiles = "CCc1cccc(C)c1NC(=O)c1sc2nc3c(cc2c1N)C(=O)CCC3"
value_kind = "GI50"
val = 0.0982

[[record]]
substance_smiles = "Cc1cc(C)c(NC(=O)c2sc3nc4c(cc3c2N)CN(Cc2ccccc2)CC4)c(C)c1"
value_kind = "GI50"
val = 4.78


----------
Consider the following molecules and their measured growth at 10 µM readings.
Test system: NCI-H322M
protocol.details: Growth inhibition of human NCI-H322M cells assessed as cell growth at 10 uM incubated for 48 hrs by sulforhodamine B assay relative to control
Assay type: functional
condition.label: read-out: Activity
value.kind: growth at 10 µM

[[record]]
substance_smiles = "Cc1cc(C)cc(S(=O)(=O)n2ccc(-c3ccc4c(c3)CCC(C)(C)O4)n2)c1"
value_kind = "growth at 10 µM"
val = "92%"

[[record]]
substance_smiles = "CN1CCc2nc3sc(C(N)=O)c(N)c3c(-c3cccs3)c2C1"
value_kind = "growth at 10 µM"
val = "15%"

[[record]]
substance_smiles = "Cc1ccc(NC(=O)c2sc3nc4c(cc3c2N)C(=O)CCC4)cc1C"
value_kind = "growth at 10 µM"
val = "35%"

[[record]]
substance_smiles = "Cc1cccc(NC(=O)c2sc3nc4c(cc3c2N)CN(Cc2ccccc2)CC4)c1"
value_kind = "growth at 10 µM"
val = "103%"

[[record]]
substance_smiles = "CC1(C)CCc2cc(-c3ccn(S(=O)(=O)c4ccc(Cl)cc4Cl)n3)ccc2O1"
value_kind = "growth at 10 µM"
val = "90.5%"

[[record]]
substance_smiles = "COc1ccc(S(=O)(=O)n2ccc(-c3ccc4c(c3)CCC(C)(C)O4)n2)cc1"
value_kind = "growth at 10 µM"
val = "101%"

[[record]]
substance_smiles = "Cc1cccc(NC(=O)c2sc3nc4c(cc3c2N)C(=O)CCC4)c1"
value_kind = "growth at 10 µM"
val = "37.2%"

[[record]]
substance_smiles = "COc1ccc(-c2ccn(S(=O)(=O)c3ccc(OC)cc3)n2)cc1"
value_kind = "growth at 10 µM"
val = "98.3%"

[[record]]
substance_smiles = "CC(=O)c1ccc2c(N)c(C(=O)Nc3ccccc3)sc2n1"
value_kind = "growth at 10 µM"
val = "114%"

[[record]]
substance_smiles = "COc1ccc(S(=O)(=O)n2ccc(-c3ccc(OC(C)C)cc3)n2)cc1"
value_kind = "growth at 10 µM"
val = "99.3%"

[[record]]
substance_smiles = "Nc1c(C(=O)N(c2ccccc2)c2ccccc2)sc2nc3c(cc12)C(=O)CCC3"
value_kind = "growth at 10 µM"
val = "102%"

[[record]]
substance_smiles = "O=S(=O)(c1ccc(Br)cc1)n1ccc(-c2ccc(OCCCF)cc2)n1"
value_kind = "growth at 10 µM"
val = "104%"

[[record]]
substance_smiles = "Nc1c(C(=O)Nc2ccccc2)sc2nc3c(cc12)CN(Cc1ccccc1)CC3"
value_kind = "growth at 10 µM"
val = "62%"

[[record]]
substance_smiles = "CC(=O)c1cccc(NC(=O)c2sc3nc4c(cc3c2N)C(=O)CCC4)c1"
value_kind = "growth at 10 µM"
val = "111%"


----------
System: HOP-92
protocol.details: Growth inhibition of human HOP-92 cells assessed as cell growth at 10 uM incubated for 48 hrs by sulforhodamine B assay relative to control
Format: functional
condition.label: read-out: Activity
Consider the following molecules and their measured growth at 10 µM readings.
value.kind: growth at 10 µM (%)

[[record]]
substance_smiles = "COc1ccc(S(=O)(=O)n2ccc(-c3ccc(OC(C)C)cc3)n2)cc1"
tested_system = "HOP-92"
value_kind = "growth at 10 µM"
val = 75.7

[[record]]
substance_smiles = "CCc1cccc(C)c1NC(=O)c1sc2nc3c(cc2c1N)C(=O)CCC3"
tested_system = "HOP-92"
value_kind = "growth at 10 µM"
val = 30

[[record]]
substance_smiles = "CCOc1ccc(-c2cc(N)n(S(=O)(=O)c3ccc(OC)cc3)n2)cc1"
tested_system = "HOP-92"
value_kind = "growth at 10 µM"
val = 82.2

